Biological target: DAPK3 (human)
Assay: radiometric filter-binding kinase assay, Kinase HotSpot
Details: compound 0.5 µM; ATP 10 µM
Exercise: for every item that follows, state its recorded residual activity.
Give bare numbers, in %.

Observe how each entry below is paired with its result.
> print(dat)
                                   compound  readout.value
1         COc1ccc(OC)c2c(=S)c3ccccc3[nH]c12            112
2         O=C(O)/C=C/c1cc(Br)c(Br)c(Br)c1Br           90.2
3      O=C1Nc2ccccc2/C1=C1\Nc2ccccc2\C1=N/O           94.4
4  CC(C)[C@H](CO)Nc1nc(Nc2cc(N)cc(Cl)c2)c2ncn(C(C)C)c2n1           96.7
5  CC(C)c1nn(-c2c(Cl)cccc2Cl)c2nc(Cc3ccc(OCCO)cc3)nc(O)c12            104

For each of the compounds below, state residual activity.
1. O=C1NC(=O)C(c2c[nH]c3ccccc23)=C1c1c[nH]c2ccccc12
2. Cc1nc2cc3nc(-c4cccs4)cnc3cc2n1C
3. Cn1cnc2cc3c(Nc4cccc(Br)c4)ncnc3cc21

RESULT:
104
102
93.7

For each of the compounds below, state residual activity.
1. CCN(CC)CCCCN1c2ccccc2Oc2ccc(Cl)cc21
2. O=C1Nc2ccccc2/C1=C1/Nc2ccccc2/C1=N\OCCC(O)CO (stereo unspecified)
3. O=C1Cc2c([nH]c3ccc(Br)cc23)-c2ccccc2N1

RESULT:
[106, 66.6, 111]

---

Target: FLT1 (human)
Experiment: radiometric filter-binding kinase assay, Kinase HotSpot
Conditions: compound 0.5 µM; ATP 10 µM
Exercise: for every item that follows, state its recorded residual activity.
The reply should consist of the numeric value with the unit placed after it.

Observe how each entry below is paired with its result.
> print(dat)
                                    molecule   system.name  readout.value
 1             COc1cc2ncc(-c3ccccc3)nc2cc1OC  FLT1 (human)            85%
 2  CN(C)C[C@H]1CCn2c(c(C3=C(c4cn(C)c5ccccc45)C(=O)NC3=O)c3ccccc32)C1  FLT1 (human)          91.3%
 3       Cn1cnc2cc3c(Nc4cccc(Br)c4)ncnc3cc21  FLT1 (human)          77.4%
 4       CCN(CC)CCCCN1c2ccccc2Oc2ccc(Cl)cc21  FLT1 (human)          94.3%
 5        Oc1ccc(Nc2nc(-c3ccc(Cl)cc3)cs2)cc1  FLT1 (human)          82.3%
 6  Nc1nccc(-c2c(-c3ccc(F)cc3)ncn2C2CCNCC2)n1  FLT1 (human)          89.3%
 7         O=C(O)/C=C/c1cc(Br)c(Br)c(Br)c1Br  FLT1 (human)          87.5%
 8  O=C1NC(=O)C(c2cn(CCCO)c3ncccc23)=C1c1cnccn1  FLT1 (human)          89.4%
 9         COc1ccc(OC)c2c(=S)c3ccccc3[nH]c12  FLT1 (human)           101%
10  O=C1Nc2ccccc2/C1=C1/Nc2ccccc2/C1=N\OCCC(O)CO (stereo not drawn)  FLT1 (human)            51%

For each of the molecules below, state residual activity.
1. O=C1NC(=O)C(c2c[nH]c3ccccc23)=C1c1c[nH]c2ccccc12
2. Cn1nc2c3c(cccc31)C(=O)c1ccccc1-2
3. O=C(Nc1cccc(Nc2cc(Nc3cccc(C(F)(F)F)c3)ncn2)c1)C1CC1
4. O=C1Cc2c([nH]c3ccc(Br)cc23)-c2ccccc2N1
5. CC(C)[C@H](CO)Nc1nc(Nc2cc(N)cc(Cl)c2)c2ncn(C(C)C)c2n1
6. O=C(CCCc1ccc(-c2ccccc2F)cc1)Nc1ccc(O)cc1

RESULT:
["53.9%", "84.3%", "99.4%", "78.9%", "97.5%", "93.1%"]

For each of the molecules below, state residual activity.
1. COc1ccc(CNC(=O)Nc2ncc([N+](=O)[O-])s2)cc1
2. CC(C)c1nn(-c2c(Cl)cccc2Cl)c2nc(Cc3ccc(OCCO)cc3)nc(O)c12
3. Cc1nc2cc3nc(-c4cccs4)cnc3cc2n1C
4. O=C1NC(=O)/C(=C\c2ccc3nccnc3c2)S1
5. CC(=O)O/N=C1\C(=C2\C(=O)Nc3cc(Br)ccc32)Nc2ccccc21
6. O=C1Nc2ccccc2/C1=C1\Nc2ccccc2\C1=N/O

RESULT:
96.8%
87.2%
93.6%
87.5%
98.6%
73.6%

QUERY: Consider the molecule shown here: CCn1cnc2c(Nc3cccc(Cl)c3)nc(N[C@@H]3CCCC[C@@H]3N)nc21 What is its recorded residual activity?
RESULT: 92.8%

---

Target: STK11 (human) (UniProt Q15831)
Sequence (Q15831 whole entry, looked up): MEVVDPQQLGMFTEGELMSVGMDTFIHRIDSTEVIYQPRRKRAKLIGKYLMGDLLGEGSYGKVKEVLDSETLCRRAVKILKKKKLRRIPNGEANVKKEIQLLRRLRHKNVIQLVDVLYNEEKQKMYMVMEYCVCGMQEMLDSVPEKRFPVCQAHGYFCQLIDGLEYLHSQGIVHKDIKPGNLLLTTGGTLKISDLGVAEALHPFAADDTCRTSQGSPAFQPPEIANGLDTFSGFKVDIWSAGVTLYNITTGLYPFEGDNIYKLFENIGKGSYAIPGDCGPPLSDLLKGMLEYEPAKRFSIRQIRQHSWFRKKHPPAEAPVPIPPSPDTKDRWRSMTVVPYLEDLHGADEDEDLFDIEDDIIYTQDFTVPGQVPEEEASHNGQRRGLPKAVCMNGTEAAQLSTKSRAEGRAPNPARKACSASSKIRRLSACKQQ
Test: radiometric filter-binding kinase assay, Kinase HotSpot
Settings: compound 0.5 µM; ATP 10 µM
Readout Label: residual activity (%)
One number for each entry, in %.

> print(dat)
                                chem.smiles  unit.string  readout.value
1  COc1ccc(CNC(=O)Nc2ncc([N+](=O)[O-])s2)cc1            %            100
2                  Nc1nnc2[nH]c3ccccc3nc1-2            %           85.7
3  O=C(CCCc1ccc(-c2ccccc2F)cc1)Nc1ccc(O)cc1            %           97.4
4      O=C1Nc2ccccc2/C1=C1\Nc2ccccc2\C1=N/O            %           25.6
5          Cn1nc2c3c(cccc31)C(=O)c1ccccc1-2            %           87.7

For each of the compounds below, state residual activity.
1. Cn1sc(=O)n(Cc2ccccc2)c1=O
2. Cc1nc2cc3nc(-c4cccs4)cnc3cc2n1C

RESULT:
1. 106
2. 89.6

For each of the compounds below, state residual activity.
1. CN([C@@H](Cc1ccc(OS(=O)(=O)c2cccc3cnccc23)cc1)C(=O)N1CCN(c2ccccc2)CC1)S(=O)(=O)c1cccc2cnccc12
2. O=C1Cc2c([nH]c3ccc(Br)cc23)-c2ccccc2N1
3. Oc1ccc(Nc2nc(-c3ccc(Cl)cc3)cs2)cc1
4. CC(C)[C@H](CO)Nc1nc(Nc2cc(N)cc(Cl)c2)c2ncn(C(C)C)c2n1

RESULT:
99
95.7
91.1
60.3

---

Target: UniProt:P29323
Sequence (P29323 whole entry, looked up): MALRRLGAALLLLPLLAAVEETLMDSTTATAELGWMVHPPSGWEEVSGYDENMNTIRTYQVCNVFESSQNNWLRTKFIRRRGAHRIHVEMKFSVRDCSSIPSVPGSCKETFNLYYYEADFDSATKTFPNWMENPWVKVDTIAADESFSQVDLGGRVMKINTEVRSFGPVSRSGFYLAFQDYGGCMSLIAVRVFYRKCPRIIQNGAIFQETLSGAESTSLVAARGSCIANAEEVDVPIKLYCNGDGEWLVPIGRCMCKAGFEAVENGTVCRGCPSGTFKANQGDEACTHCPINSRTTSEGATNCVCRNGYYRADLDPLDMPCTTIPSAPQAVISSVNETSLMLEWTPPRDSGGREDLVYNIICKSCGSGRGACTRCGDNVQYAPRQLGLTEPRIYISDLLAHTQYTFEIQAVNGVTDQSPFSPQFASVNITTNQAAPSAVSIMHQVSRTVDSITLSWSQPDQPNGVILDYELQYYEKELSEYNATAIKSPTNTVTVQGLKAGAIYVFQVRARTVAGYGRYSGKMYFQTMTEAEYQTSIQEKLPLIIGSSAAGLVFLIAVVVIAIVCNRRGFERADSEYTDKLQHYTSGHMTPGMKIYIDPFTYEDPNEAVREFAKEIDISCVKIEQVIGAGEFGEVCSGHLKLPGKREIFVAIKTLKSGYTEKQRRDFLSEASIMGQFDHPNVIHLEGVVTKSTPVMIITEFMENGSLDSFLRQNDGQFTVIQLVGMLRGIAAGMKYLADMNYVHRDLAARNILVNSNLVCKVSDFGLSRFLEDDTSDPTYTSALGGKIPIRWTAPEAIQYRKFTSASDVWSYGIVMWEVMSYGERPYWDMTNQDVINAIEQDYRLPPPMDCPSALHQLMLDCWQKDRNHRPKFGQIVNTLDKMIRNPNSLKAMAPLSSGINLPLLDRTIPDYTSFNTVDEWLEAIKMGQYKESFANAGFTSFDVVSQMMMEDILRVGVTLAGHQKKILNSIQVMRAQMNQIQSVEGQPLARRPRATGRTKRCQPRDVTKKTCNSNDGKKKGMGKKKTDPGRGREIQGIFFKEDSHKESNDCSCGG
Assay: radiometric filter-binding kinase assay, Kinase HotSpot
Conditions: compound 0.5 µM; ATP 10 µM
Readout Label: residual activity (%)
One number for each entry, in %.

Observe how each entry below is paired with its result.
> print(dat)
                                chem.smiles  readout.value
1  COc1ccc(CNC(=O)Nc2ncc([N+](=O)[O-])s2)cc1           88.4
2         COc1ccc(OC)c2c(=S)c3ccccc3[nH]c12           94.9
3  Nc1nccc(-c2c(-c3ccc(F)cc3)ncn2C2CCNCC2)n1            103

Here is the next item to consider.
QUERY: Consider the compound shown here: CCN(CC)CCCCN1c2ccccc2Oc2ccc(Cl)cc21 What is its recorded residual activity?
RESULT: 107

---

Molecular target: TYK2 JH1 catalytic (human) (UniProt P29597)
Sequence (P29597 whole entry, looked up): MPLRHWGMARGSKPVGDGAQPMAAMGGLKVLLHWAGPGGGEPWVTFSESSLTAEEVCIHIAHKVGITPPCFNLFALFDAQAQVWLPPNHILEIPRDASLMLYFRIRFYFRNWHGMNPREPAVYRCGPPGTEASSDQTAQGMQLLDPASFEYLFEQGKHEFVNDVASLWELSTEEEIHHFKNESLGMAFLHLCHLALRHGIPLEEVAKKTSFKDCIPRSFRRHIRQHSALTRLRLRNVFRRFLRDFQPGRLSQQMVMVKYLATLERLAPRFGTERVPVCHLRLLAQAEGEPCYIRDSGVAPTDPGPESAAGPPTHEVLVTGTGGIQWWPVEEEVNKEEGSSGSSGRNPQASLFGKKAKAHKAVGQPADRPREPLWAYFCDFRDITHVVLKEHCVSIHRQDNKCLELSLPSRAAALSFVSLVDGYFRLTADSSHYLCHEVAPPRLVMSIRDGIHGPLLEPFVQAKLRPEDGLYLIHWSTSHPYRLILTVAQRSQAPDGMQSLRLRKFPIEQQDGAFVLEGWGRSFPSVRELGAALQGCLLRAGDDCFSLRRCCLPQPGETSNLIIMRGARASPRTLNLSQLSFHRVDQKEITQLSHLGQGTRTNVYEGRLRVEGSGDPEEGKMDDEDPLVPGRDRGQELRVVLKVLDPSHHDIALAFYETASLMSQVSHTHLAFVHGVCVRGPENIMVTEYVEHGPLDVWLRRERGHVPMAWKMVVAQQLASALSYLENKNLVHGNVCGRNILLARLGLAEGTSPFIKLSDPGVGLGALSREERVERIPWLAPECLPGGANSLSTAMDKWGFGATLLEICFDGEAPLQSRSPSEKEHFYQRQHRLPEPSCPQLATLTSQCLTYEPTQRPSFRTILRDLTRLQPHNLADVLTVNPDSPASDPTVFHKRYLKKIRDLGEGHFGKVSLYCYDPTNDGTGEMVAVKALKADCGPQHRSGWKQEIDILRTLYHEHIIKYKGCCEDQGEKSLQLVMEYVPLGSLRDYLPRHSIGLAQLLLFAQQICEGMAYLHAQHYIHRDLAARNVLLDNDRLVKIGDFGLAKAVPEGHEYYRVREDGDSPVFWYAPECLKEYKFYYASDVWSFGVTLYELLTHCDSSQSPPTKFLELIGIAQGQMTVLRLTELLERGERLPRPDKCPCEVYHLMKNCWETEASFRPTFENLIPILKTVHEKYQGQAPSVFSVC
Test: radiometric filter-binding kinase assay, Kinase HotSpot
Settings: compound 0.5 µM; ATP 10 µM
Readout Label: residual activity (%)
Numbers only, in %.

Observe how each entry below is paired with its result.
> print(dat)
                                chem.smiles  readout.value
1         COc1ccc(OC)c2c(=S)c3ccccc3[nH]c12            108
2         O=C1NC(=O)/C(=C\c2ccc3nccnc3c2)S1           85.2
3                 Cn1sc(=O)n(Cc2ccccc2)c1=O             96
4      O=C1Nc2ccccc2/C1=C1\Nc2ccccc2\C1=N/O           24.3
5  Nc1nccc(-c2c(-c3ccc(F)cc3)ncn2C2CCNCC2)n1           99.8

Here is the next item to consider.
QUERY: Consider the molecule shown here: Cn1cnc2cc3c(Nc4cccc(Br)c4)ncnc3cc21 What is its recorded residual activity?
RESULT: 112

---

Exercise: for every item that follows, state its recorded residual activity.
Molecular target: UniProt P45983
Sequence (P45983 whole entry, looked up): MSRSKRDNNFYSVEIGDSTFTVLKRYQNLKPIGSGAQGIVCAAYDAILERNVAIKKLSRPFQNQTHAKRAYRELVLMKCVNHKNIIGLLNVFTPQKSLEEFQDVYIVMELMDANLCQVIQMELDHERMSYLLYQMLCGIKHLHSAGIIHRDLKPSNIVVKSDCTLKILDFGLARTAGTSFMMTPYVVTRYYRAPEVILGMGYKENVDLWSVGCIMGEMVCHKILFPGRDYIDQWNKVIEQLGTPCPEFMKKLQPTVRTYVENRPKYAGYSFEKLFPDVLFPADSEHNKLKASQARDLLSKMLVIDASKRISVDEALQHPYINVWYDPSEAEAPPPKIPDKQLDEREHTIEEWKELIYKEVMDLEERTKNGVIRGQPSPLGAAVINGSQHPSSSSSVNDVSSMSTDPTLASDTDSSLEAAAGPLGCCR
Assay: radiometric filter-binding kinase assay, Kinase HotSpot
Details: compound 0.5 µM; ATP 10 µM
Answers are plain numbers, in %.

> print(dat)
                                   molecule      readout.label  readout.value
1        Oc1ccc(Nc2nc(-c3ccc(Cl)cc3)cs2)cc1  residual activity            100
2  O=C1NC(=O)C(c2cn(CCCO)c3ncccc23)=C1c1cnccn1  residual activity           99.6
3  Nc1nccc(-c2c(-c3ccc(F)cc3)ncn2C2CCNCC2)n1  residual activity           94.8
4       CCN(CC)CCCCN1c2ccccc2Oc2ccc(Cl)cc21  residual activity           89.7
5                  Nc1nnc2[nH]c3ccccc3nc1-2  residual activity           89.6
6  CC(=O)O/N=C1\C(=C2\C(=O)Nc3cc(Br)ccc32)Nc2ccccc21  residual activity           88.9
7  O=C(Nc1cccc(Nc2cc(Nc3cccc(C(F)(F)F)c3)ncn2)c1)C1CC1  residual activity           93.4
8  CC(C)[C@H](CO)Nc1nc(Nc2cc(N)cc(Cl)c2)c2ncn(C(C)C)c2n1  residual activity           93.4

For each of the molecules below, state residual activity.
1. O=C1Cc2c([nH]c3ccc(Br)cc23)-c2ccccc2N1
2. CC(C)c1nn(-c2c(Cl)cccc2Cl)c2nc(Cc3ccc(OCCO)cc3)nc(O)c12
3. O=C1NC(=O)C(c2c[nH]c3ccccc23)=C1c1c[nH]c2ccccc12
4. O=C1Nc2ccccc2/C1=C1/Nc2ccccc2/C1=N\OCCC(O)CO (configuration not stated)
5. CCn1cnc2c(Nc3cccc(Cl)c3)nc(N[C@@H]3CCCC[C@@H]3N)nc21
6. COc1cc2ncnc(N3CCN(C(=O)Nc4ccc(Oc5ccccc5)cc4)CC3)c2cc1OC
7. Cn1cnc2cc3c(Nc4cccc(Br)c4)ncnc3cc21

RESULT:
1. 87.5
2. 95.4
3. 95.1
4. 101
5. 97.6
6. 90.5
7. 96.9
